System: Plasmodium berghei
EXPERIMENTAL_PROTOCOL: Screen against P. berghei liver stage (PbLuc), transformed with Luciferase, at 10uM
Assay type: functional, HepG2
CONDITIONS_USED: tested at 10 uM
Screen size: about 69,000 compounds; about 8,600 (12%) showed an effect of 50% or more. What follows is part of a selection rich in strong results, with near analogues and random picks from the rest.
EXPERIMENTAL_ENDPOINT: INHIBITION
Give the value; after it, write the unit.

[
  {
    "COMPOUND": "CCOc1ccc([C@@H]2N[C@H](c3nccs3)Cc3ccsc32)cc1OC",
    "INHIBITION": "69.25%"
  }
]

Inquiry: Send back Plasmodium berghei INHIBITION of CC(C)OCCCNC(=O)CN1CCN(c2nccs2)C(C)C1 (configuration not stated) only.
Reply text: -27.5%

Inquiry: Send back Plasmodium berghei INHIBITION of `Cc1ccoc1C(=O)N1Cc2c(CN3CCCCC3)nn(C)c2C1` only.
Reply text: 3.69%

Inquiry: Send back Plasmodium berghei INHIBITION of `COc1cccc([C@@H]2N[C@H](c3nccs3)Cc3ccsc32)c1OC` only.
Reply text: 49.2%

---

Tested on: Plasmodium berghei
EXPERIMENTAL_PROTOCOL: Screen against P. berghei liver stage (PbLuc), transformed with Luciferase, at 10uM
Assay type: functional, HepG2
CONDITIONS_USED: tested at 10 uM
In all, about 69,000 compounds went through this assay and about 8,600 (12%) showed an effect of 50% or more. For the sample, strong results were picked, then their nearest neighbours and some compounds at random.
EXPERIMENTAL_ENDPOINT: INHIBITION

[
  {
    "TEST_SMILES": "O=C(c1ccco1)N1CCN2C[C@H](OCc3cccnc3)C[C@H]2C1",
    "INHIBITION": "12.4%"
  }
]

Inquiry: Send back Plasmodium berghei INHIBITION of `O=C(c1ccnnc1)N1CCN2C[C@H](OCc3cccnc3)C[C@H]2C1` only.
Reply text: 26.4%

Inquiry: Send back Plasmodium berghei INHIBITION of `Oc1nnc(-c2cccs2)c2sc(N3CCCC3)nc12` only.
Reply text: 47.7%

Inquiry: Send back Plasmodium berghei INHIBITION of `O=C(c1cnccn1)N1CCN2C[C@H](OCc3ccccc3)C[C@H]2C1` only.
Reply text: 11%

Inquiry: Send back Plasmodium berghei INHIBITION of `O=C(CSc1nc2n[nH]cc2c(=O)n1-c1ccccc1)N1CCOCC1` only.
Reply text: 13.9%

---

System: Plasmodium berghei
EXPERIMENTAL_PROTOCOL: Screen against P. berghei liver stage (PbLuc), transformed with Luciferase, at 10uM
Type: functional, HepG2
CONDITIONS_USED: tested at 10 uM
The campaign covered roughly 69,000 compounds. About 8,600 (12%) showed an effect of 50% or more. The full list was thinned out, with strong results kept by preference.
Rule: measured INHIBITION below 30% gets yes; anything equal to or greater than 30% gets no.

Worked cases, answers included:
[
  {
    "COMPOUND": "Cc1nc(C)n(CC2CCCN(CCc3ccccc3)C2)n1 (stereo unspecified)",
    "ASSIGNED_LABEL": "no"
  },
  {
    "COMPOUND": "CC(=O)N1CCC2(CC1)CCN(C(=O)c1cccc(C(F)(F)F)c1)C2",
    "ASSIGNED_LABEL": "no"
  }
]

Inquiry: Determine if `CC(=O)N1CCC2(CCN(C(=O)c3ccc(F)c(C(F)(F)F)c3)CC2)C1` shows INHIBITION strictly lower than 30%.
Reply text: yes

Inquiry: Determine if Cc1nc(C)n(CC2CCCCN2c2ncnc3ccsc23)n1 (stereo unspecified) shows INHIBITION strictly lower than 30%.
Reply text: yes

Inquiry: Determine if `CC(=O)N1CCC2(CC1)CCN(C(=O)c1ccc(F)c(C(F)(F)F)c1)C2` shows INHIBITION strictly lower than 30%.
Reply text: yes

Inquiry: Determine if Cc1nc(C)n(CC2CCCN(c3ncnc4sccc34)C2)n1 (stereo unspecified) shows INHIBITION strictly lower than 30%.
Reply text: no

Inquiry: Determine if `c1csc(CCNc2nc(-c3ccncc3)nc3c2CCNCC3)c1` shows INHIBITION strictly lower than 30%.
Reply text: no

Inquiry: Determine if Cc1nc(C)n(CC2CCCN2c2ncnc3sccc23)n1 (stereo unspecified) shows INHIBITION strictly lower than 30%.
Reply text: yes

Inquiry: Determine if `O=C(Nc1cccc(F)c1)NC1CCN(Cc2ccncc2)CC1` shows INHIBITION strictly lower than 30%.
Reply text: no

Inquiry: Determine if `Fc1cccc(Nc2nc(N3CCCC3)nc3c2CNCC3)c1` shows INHIBITION strictly lower than 30%.
Reply text: no

Inquiry: Determine if Cc1nc(C)n(CC2CCCN(c3ncnc4ccsc34)C2)n1 (stereo unspecified) shows INHIBITION strictly lower than 30%.
Reply text: no

---

INHIBITION reference
Tested on: Plasmodium berghei
EXPERIMENTAL_PROTOCOL: Screen against P. berghei liver stage (PbLuc), transformed with Luciferase, at 10uM
Assay type: functional, HepG2
CONDITIONS_USED: tested at 10 uM
Hit rate of the full screen: of about 69,000 compounds, about 8,600 (12%) showed an effect of 50% or more. The sample as a whole holds a higher share of strong results than the screen did.

[
  {
    "COMPOUND": "Cn1cnc2c(N3CCOCC3)nc(C3CCNCC3)cc21",
    "TARGET_UNDER_TEST": "Plasmodium berghei",
    "INHIBITION": "-76.7%"
  },
  {
    "COMPOUND": "Cc1nccc(C(=O)NC(COCC(C)C)c2ccco2)n1 (configuration not stated)",
    "TARGET_UNDER_TEST": "Plasmodium berghei",
    "INHIBITION": "-19.4%"
  },
  {
    "COMPOUND": "CSCC(=O)N1CCOC(c2nc(C)n[nH]2)C1 (configuration not stated)",
    "TARGET_UNDER_TEST": "Plasmodium berghei",
    "INHIBITION": "36.8%"
  },
  {
    "COMPOUND": "CCOc1ncccc1CNC(=O)Nc1cc(C)nn1C",
    "TARGET_UNDER_TEST": "Plasmodium berghei",
    "INHIBITION": "-19.6%"
  },
  {
    "COMPOUND": "Cc1nc(CN(C)C(=O)c2cc(C)sc2NC(=O)C(C)(C)C)no1",
    "TARGET_UNDER_TEST": "Plasmodium berghei",
    "INHIBITION": "18%"
  },
  {
    "COMPOUND": "Fc1ccc(-c2nc(CNC3CCc4ncnn4C3)cs2)cc1 (configuration not stated)",
    "TARGET_UNDER_TEST": "Plasmodium berghei",
    "INHIBITION": "48.8%"
  },
  {
    "COMPOUND": "Cc1cnn(CC2CCCCN2C(=O)c2c(C)noc2C)c1 (configuration not stated)",
    "TARGET_UNDER_TEST": "Plasmodium berghei",
    "INHIBITION": "11.4%"
  },
  {
    "COMPOUND": "Cc1nc(COCc2cnc3n2CCN(CC2CCC2)C3C)cs1 (configuration not stated)",
    "TARGET_UNDER_TEST": "Plasmodium berghei",
    "INHIBITION": "50.2%"
  }
]

Inquiry: Send back Plasmodium berghei INHIBITION of Cc1occc1CNC(=O)N1CCC(Cc2cnn(C)c2)C1 (configuration not stated) only.
Reply text: -24.15%

Inquiry: Send back Plasmodium berghei INHIBITION of `Cc1cc(NC(=O)NCc2cccnc2OC2CCCC2)n(C)n1` only.
Reply text: 50.3%

Inquiry: Send back Plasmodium berghei INHIBITION of Cc1cnn(C2CCCN(C(=O)c3ccc(-n4cnnn4)cc3)C2)c1 (configuration not stated) only.
Reply text: 47.4%

Inquiry: Send back Plasmodium berghei INHIBITION of `CO[C@@H]1CCN(C(=O)c2ccsc2)[C@@H]2CN(CC3CC3)C[C@@H]21` only.
Reply text: -19.6%

Inquiry: Send back Plasmodium berghei INHIBITION of `Cc1nn(C)c(C)c1CCC(=O)NCc1cccnc1OC1CCCC1` only.
Reply text: 56.6%

Inquiry: Send back Plasmodium berghei INHIBITION of `O=C1[C@H]2CN(Cc3ccccn3)C[C@H]2CN1c1ccsc1` only.
Reply text: 56.7%

Inquiry: Send back Plasmodium berghei INHIBITION of `COc1ncccc1CNC(=O)c1cnccn1` only.
Reply text: -12%

Inquiry: Send back Plasmodium berghei INHIBITION of Cc1nc(COCc2cnc3n2CCN(C2CCC2)C3C)cs1 (configuration not stated) only.
Reply text: -12.6%

Inquiry: Send back Plasmodium berghei INHIBITION of `CCc1c(C(=O)O)nnn1-c1cc(C)ccc1C` only.
Reply text: -7.83%

Inquiry: Send back Plasmodium berghei INHIBITION of `CN(C)CCNc1ncccc1CNC(=O)Nc1cc(F)cc(F)c1` only.
Reply text: 55.6%

Inquiry: Send back Plasmodium berghei INHIBITION of `CN(C)CC(=O)N1Cc2nc(C(=O)N3CCCN(C)CC3)oc2C1` only.
Reply text: -2.26%

Inquiry: Send back Plasmodium berghei INHIBITION of `O=S(=O)(c1cccs1)N1CC[C@H]2[C@H]1CCN2CC1CC1` only.
Reply text: 2.58%

Inquiry: Send back Plasmodium berghei INHIBITION of `CC[C@@H](C)[C@@H](N)C(=O)Nc1cccc(-c2cnc(N(C)CCO)nc2)c1` only.
Reply text: 8.53%

Inquiry: Send back Plasmodium berghei INHIBITION of `Cc1ccc2c(c1)CCC21CCN(C(=O)CN(C)C)CC1` only.
Reply text: 38.5%

Inquiry: Send back Plasmodium berghei INHIBITION of `CC(C)c1noc(OCC(=O)N(C)C(C)C)n1` only.
Reply text: -13.6%

Inquiry: Send back Plasmodium berghei INHIBITION of `O=C(c1ccncc1)N1C[C@H]2CC[C@@H](C1)N(C(=O)N1CCOCC1)C2` only.
Reply text: -20.6%

Inquiry: Send back Plasmodium berghei INHIBITION of `CCc1nc(CCNC(=O)Nc2ccc(C(=O)NC)cc2C)cs1` only.
Reply text: 1.28%

Inquiry: Send back Plasmodium berghei INHIBITION of Cc1ccc(CC2COCCN(Cc3ccccc3)C2)nc1 (configuration not stated) only.
Reply text: 35%

Inquiry: Send back Plasmodium berghei INHIBITION of `Cc1noc(C)c1CNC(=O)Nc1ccc(N2CCSCC2)cc1` only.
Reply text: 7.93%

Inquiry: Send back Plasmodium berghei INHIBITION of `O=C(Cc1ccccn1)N1CCC2(CC1)CN(CC1CC1)C(=O)CO2` only.
Reply text: 15.3%

Inquiry: Send back Plasmodium berghei INHIBITION of `COc1ncccc1CNC(=O)Nc1cc(C)nn1C` only.
Reply text: 29.7%

Inquiry: Send back Plasmodium berghei INHIBITION of `Cc1ccc(-n2nnnc2SCN2CCCCC2=O)cc1C` only.
Reply text: 63.8%

Inquiry: Send back Plasmodium berghei INHIBITION of CC(C(=O)NCc1cccs1)N1CCN(Cc2nccn2C)CC1 (configuration not stated) only.
Reply text: 46.4%

Taken from ChEMBL document CHEMBL4513216.
